Value source: patent US20260069689A1

Target: T1, SARS-CoV2 Spike ecto foldon Trimer expressed with a C-terminal myc-myc-hexahistidine (SARS-CoV-2, UniProt P0DTC2 14-1213)
T1 construct: extracellular domain
Test: SPR Biacore, mAb captured by anti-hFc, 37C
pKd: −log10 of the molar value.
Entry flag: Y if pKd reaches 10; N if it does not.

Binder	Label class
mAb15163 (antibody, V domains shown) VH: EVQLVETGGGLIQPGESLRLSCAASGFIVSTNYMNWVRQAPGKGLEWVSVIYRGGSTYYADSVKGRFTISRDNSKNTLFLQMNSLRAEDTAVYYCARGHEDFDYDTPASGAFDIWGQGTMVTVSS VL: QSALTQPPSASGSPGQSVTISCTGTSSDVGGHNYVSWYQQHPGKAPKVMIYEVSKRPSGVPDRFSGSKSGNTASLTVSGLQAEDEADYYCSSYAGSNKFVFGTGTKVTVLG	Y
mAb15162 (antibody, V domains shown) VH: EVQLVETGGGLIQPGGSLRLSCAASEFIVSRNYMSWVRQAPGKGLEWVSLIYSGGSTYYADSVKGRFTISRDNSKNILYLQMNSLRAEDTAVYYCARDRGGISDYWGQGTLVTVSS VL: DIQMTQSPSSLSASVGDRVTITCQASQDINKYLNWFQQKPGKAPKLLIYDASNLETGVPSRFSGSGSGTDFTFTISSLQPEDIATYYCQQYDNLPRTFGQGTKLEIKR	N
